These entries and their values trace back to PubChem BioAssay.

targetEntity: Left-right determination factor 2 (Homo sapiens)
testSummary: LEFTY2 binders on small-molecule microarrays, primary screen, biochemical, small-molecule microarray, 635 nm fluorescence scan (AID 1110)
conditionNotes: LEFTY2 binding, higher = more signal
measuredParameter: composite z-score

Completed entries (count: 3):
{"columns": ["molecule", "composite z-score"],
 "data": [
  ["Cc1ccccc1C(O)C1C=CC2C(=O)NC(=O)C2N1Nc1ccc(Cl)cc1Cl (stereo not given)", -0.345],
  ["CC(C)C[C@@H]1NC(=O)CNC(=O)[C@@]23C(=O)N[C@@H](Cc4ccccc4)C2[C@H](C)[C@@]2(C)O[C@H]2C3/C=C/C/C=C\\CNC1=O (stereo not given in full)", 0.6],
  ["CC(=O)NCCCC[C@@H]1NC(=O)[C@H]2C[C@@H](C(=O)NCCCCCNC(=O)CS)[C@@H](c3cccc(OCCO)c3)N2C1=O", 0.0794]
]}

Request - read-out composite z-score | tested on Left-right determination factor 2 (Homo sapiens) | molecule `COCC1=C2[C@@H](CCc3ccccc3)OB(O)C[C@@H]2[C@@H]2C(=O)N(C)C(=O)[C@@H]2C1`
0.211

Request - read-out composite z-score | tested on Left-right determination factor 2 (Homo sapiens) | molecule `COc1ccc([Si](C)(C)[C@H]2[C@H](CCO)O[C@@]3(C(=O)N(Cc4ccc(N5C(=O)c6ccccc6Oc6ccccc65)cc4)c4ccccc43)[C@@H]2C)cc1`
-0.804

Request - read-out composite z-score | tested on Left-right determination factor 2 (Homo sapiens) | molecule `CCOC(=O)C=Cc1cc(F)ccc1O`
-0.251

Request - read-out composite z-score | tested on Left-right determination factor 2 (Homo sapiens) | molecule `COCCCNC(=O)[C@@]1(c2ccc([N+](=O)[O-])cc2)CC(=O)N(CC23CC4CC(CC(C4)C2)C3)[C@@H]1c1ccc(CO)cc1I`
-0.381

Request - read-out composite z-score | tested on Left-right determination factor 2 (Homo sapiens) | molecule COc1cc(NN2C(C(O)C3CCCCC3)C=CC3C(=O)N(C)C(=O)C32)cc(OC)c1OC (stereo not given)
0.0347

Request - read-out composite z-score | tested on Left-right determination factor 2 (Homo sapiens) | molecule `Cc1c(NC(=O)/C(C#N)=C/c2ccccc2Cl)c(=O)n(-c2ccccc2)n1C`
0.453

Request - read-out composite z-score | tested on Left-right determination factor 2 (Homo sapiens) | molecule CC(C)C(CO)N1C(=O)[C@@H]2[C@H]3C(=O)OCC=C[C@H]3OC23C=CCN(C(C)(C)C)C(=O)[C@@H]13 (stereo not given in full)
-0.15

Request - read-out composite z-score | tested on Left-right determination factor 2 (Homo sapiens) | molecule `C=C(CCCC)/C(=C/C[C@H](OC(C)=O)c1ccc(OCCO)cc1)c1cc(C(=O)OC)ccc1OC`
-0.399

Request - read-out composite z-score | tested on Left-right determination factor 2 (Homo sapiens) | molecule `COCCOC(=O)N1C(=O)[C@@]2(c3cc(C#CC4(O)CCCCCC4)ccc31)[C@H](C(=O)N1CCN(c3ncccn3)CC1)[C@H]1C(=O)O[C@H](c3ccccc3)[C@H](c3ccccc3)N1[C@@H]2c1ccccc1OCCO`
1.2

Request - read-out composite z-score | tested on Left-right determination factor 2 (Homo sapiens) | molecule `COCC(=C=CC[C@H](O)c1cccc(OCCO)c1)C[C@H](O)COCc1ccccc1`
-0.35

Request - read-out composite z-score | tested on Left-right determination factor 2 (Homo sapiens) | molecule `CN1C(=O)[C@@]2(Cc3ccccc3)N=C(c3ccc(OCCCO)cc3)O[C@H]2c2ccccc21`
0.879

Request - read-out composite z-score | tested on Left-right determination factor 2 (Homo sapiens) | molecule `O=C(NCCN1CCOCC1)[C@@H]1c2ccccc2C(=O)N(Cc2ccccc2)[C@H]1c1ccc(CO)cc1`
-1.45

Request - read-out composite z-score | tested on Left-right determination factor 2 (Homo sapiens) | molecule `COCCOC(=O)N1C(=O)[C@@]2(c3cc(C#CCC(C(=O)OC)C(=O)OC)ccc31)[C@H](c1ccc(OCCO)cc1)N1[C@H](c3ccccc3)[C@H](c3ccccc3)OC(=O)[C@H]1[C@@H]2C(=O)Nc1nc2ccccc2s1`
0.423

Request - read-out composite z-score | tested on Left-right determination factor 2 (Homo sapiens) | molecule `C=C(COC)/C(=C/C[C@H](OC(C)=O)c1cccc(OCCO)c1)c1cnc2ccccc2c1`
0.536

Request - read-out composite z-score | tested on Left-right determination factor 2 (Homo sapiens) | molecule CC(C)C[C@@H]1NC(=O)[C@@]23C(=O)N[C@@H](Cc4ccccc4)C2[C@H](C)[C@@]2(C)O[C@H]2C3/C=C/C/C=C\CNC(=O)[C@@H](C)NC1=O (stereo not given in full)
0.58

Request - read-out composite z-score | tested on Left-right determination factor 2 (Homo sapiens) | molecule `C=CCNC(=O)[C@H]1[C@@H]2C(=O)O[C@@H](c3ccccc3)[C@@H](c3ccccc3)N2[C@@H](c2ccc(OCCO)cc2)[C@]12C(=O)Nc1ccc(C#CCNC(N)=O)cc12`
0.192

Request - read-out composite z-score | tested on Left-right determination factor 2 (Homo sapiens) | molecule `C=CCN1C(=O)[C@]2(O[C@H](CCO)[C@@H]([Si](C)(C)c3ccc(OC)cc3)[C@@H]2C)c2cc(NC(=O)c3ccc(OC)cc3)ccc21`
0.391

Request - read-out composite z-score | tested on Left-right determination factor 2 (Homo sapiens) | molecule `COCCCNC(=O)[C@@H]1c2ccccc2C(=O)N(C2Cc3ccccc3C2)[C@H]1c1ccc(CO)cc1`
0.173

Request - read-out composite z-score | tested on Left-right determination factor 2 (Homo sapiens) | molecule `CCCNC(=O)[C@@]1(Sc2ccc(C)cc2)CC(=O)N(C2CCCCC2)[C@@H]1c1ccc(CO)cc1I`
-0.153

----------
testSummary: small-molecule microarray binders of probe aNog, primary screen, biochemical, biotinylated probe, 635/667 nm fluorescence (AID 1115);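 note: probe is biotinylated aNog protein used at 0.15 µg/mL for 1 h at 4 C; z-score combines 667 nm fluorescence of each spot with its signal to noise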
conditionNotes: higher = more signal
composite z-score vs -0.2: at or above is Criterion met, below is Criterion not met.

Does the compound `CCCCC(=C=CC[C@H](O)c1ccc(OCCO)cc1)C[C@H](O)COCc1ccccc1` have recorded composite z-score that is -0.2 or more?
Criterion met

Does the compound `CO[C@H]1O[C@H](CO)[C@@H](OC(=O)Nc2cccc(F)c2)[C@H](OC(=O)Nc2ccccc2-c2ccccc2)[C@H]1OC(=O)Nc1ccccc1-c1ccccc1` have recorded composite z-score that is -0.2 or more?
Criterion met

Does the compound `CN1C(=O)[C@@]2(Cc3ccccc3)N=C(c3ccc(OCCCO)cc3)O[C@H]2c2ccccc21` have recorded composite z-score that is -0.2 or more?
Criterion met

Does the compound `NC(=O)[C@H]1[C@@H]2C(=O)O[C@@H](c3ccccc3)[C@@H](c3ccccc3)N2[C@@H](c2ccc(O)cc2)[C@]12C(=O)Nc1ccc(C#CC3=CCCCC3)cc12` have recorded composite z-score that is -0.2 or more?
Criterion met

Does the compound `CCCC=C(CCC)[C@@H](NC(=O)CCc1ccccc1)c1ccc(C(F)(F)F)cc1` have recorded composite z-score that is -0.2 or more?
Criterion met

Does the compound `CCOC(=O)C[C@H]1[C@H](OC(=O)c2ccccc2-c2ccccc2)[C@@H](NC(=O)c2ccc3ccccc3n2)c2cc(OCCCO)ccc2N1C(=O)c1ccccc1` have recorded composite z-score that is -0.2 or more?
Criterion not met

Does the compound `CO[C@H]1O[C@H](CO)[C@@H](OC(=O)c2ccc(Br)cc2)[C@@H]2OC(=O)[C@H](Cc3ccccc3)C/C=C/C[C@@H](Cc3ccccc3)C(=O)O[C@@H]12` have recorded composite z-score that is -0.2 or more?
Criterion not met

Does the compound `CC(C)(C)OC(=O)CC[C@]1(C(=O)N2CCCCC2)COC(c2ccc(OCCCO)cc2)=N1` have recorded composite z-score that is -0.2 or more?
Criterion not met

Does the compound O=C1C2C=CC(C(O)c3ccc4c(c3)OCO4)N(Nc3ccccc3)C2C(=O)N1c1ccccc1 (centres undefined) have recorded composite z-score that is -0.2 or more?
Criterion met

Does the compound C=CCC(OC(C)=O)[C@@H]1[C@@H](N(Cc2ccc(-c3ccccc3)cc2)C(=O)c2ccc(C)cc2)c2cc(OCCCO)ccc2N1C(=O)Cc1ccc2ccccc2c1 (some centres undefined) have recorded composite z-score that is -0.2 or more?
Criterion met

----------
testSummary: COS7 lysate on small-molecule microarray, probe aHis, 635 nm (AID 1123);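 note: z-score combines 667nm fluorescence intensity with signal-to-noise per printed compound spot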
conditionNotes: COS7 cell lysate, fluorescence, higher = more signal
Listed here: items and their measured composite z-score.
Quick one: just the number, no unit, thanks!

Completed entries (count: 6):
{"columns": ["compound", "composite z-score"],
 "data": [
  ["CC(C)[Si]1(C(C)C)OCc2cc(-c3ccc(-c4ccc(Cl)c(Cl)c4)o3)nc(CCc3ccccc3)c21", 0.587],
  ["Cc1ccc(F)cc1S(=O)(=O)N[C@@H]1CCN(Cc2cccc3[nH]ccc23)C1", -0.339],
  ["O=C1c2ccccc2[C@](Cc2ccccc2I)(C(=O)NC2CC2)[C@H](c2ccc(CO)cc2)N1Cc1ccccc1C(F)(F)F", 1.88],
  ["COC(=O)C1=CC(CCCO)=CC(c2ccc(CN3CCCC3)cc2)N(Cc2cc3c(cc2Br)OCO3)C=C1C(=O)OC (configuration not stated)", 1.76],
  ["COCC1C2CC[C@H]3C(OCc4ccc(OC)cc4)OC[C@]4(C)[C@H]3C2=C(CN4C(=O)OC(C)(C)C)[C@H](C)C1COC (some centres not stated)", 2.82],
  ["CO[C@H]1O[C@H](CO)[C@@H](OC(=O)c2ccc(Br)cc2)[C@@H]2OC(=O)[C@H](Cc3ccccc3)C/C=C/C[C@@H](Cc3ccccc3)C(=O)O[C@@H]12", 0.186]
]}

I have this compound here, `COc1ccc(C(=O)Nc2cccc(CN3C(=O)[C@]4(O[C@H](CCn5cc([C@H](O)c6ccccc6)nn5)[C@@H]([Si](C)(C)c5ccc(OC)cc5)[C@@H]4C)c4ccccc43)c2)cc1` , and I need its recorded composite z-score.
0.18
